Each record here notes measured Vd.
experiment: Volume of distribution at steady state in Sprague-Dawley rat at 2 mg/kg, iv or 10 mg/kg, po; type: ADME, organism-based; conditions: in vivo, read-out: Vdss
READOUT_KIND: Vd (L/kg)

Cc1cc(C(F)(F)F)ccc1-c1cc2cnn([C@@H](CC(C)C)c3ccc(C(=O)NCCC(=O)O)cc3)c2cc1C : 2.67
Cc1cc2c(cnn2[C@@H](CC(C)C)c2ccc(C(=O)NCCC(=O)O)cc2)cc1-c1ccc(C(F)(F)F)cc1Cl : 3.32
Cc1cc(C(F)(F)F)ccc1-c1cc2cn([C@@H](CC(C)C)c3ccc(C(=O)NCCC(=O)O)cc3)nc2cc1C : 2.94
Cc1c(-c2ccc(C(F)(F)F)cc2Cl)ccc2nn([C@@H](CC(C)C)c3ccc(C(=O)NCCC(=O)O)cc3)cc12 : 2.46

---

Each record here notes measured AUC(0-t).
test: AUClast in dog at 2 mg/kg, iv or 10 mg/kg, po; type: ADME, organism-based, Canis lupus familiaris; settings: in vivo
READOUT_KIND: AUC(0-t)

Cc1cc(C(F)(F)F)ccc1-c1cc2cnn([C@@H](CC(C)C)c3ccc(C(=O)NCCC(=O)O)cc3)c2cc1C : 422 µM·h
Cc1cc2c(cnn2[C@@H](CC(C)C)c2ccc(C(=O)NCCC(=O)O)cc2)cc1-c1ccc(C(F)(F)F)cc1Cl : 544 µM·h
Cc1c(-c2ccc(C(F)(F)F)cc2Cl)ccc2nn([C@@H](CC(C)C)c3ccc(C(=O)NCCC(=O)O)cc3)cc12 : 248 µM·h
Cc1cc(C(F)(F)F)ccc1-c1cc2cn([C@@H](CC(C)C)c3ccc(C(=O)NCCC(=O)O)cc3)nc2cc1C : 468 µM·h

---

assay: Half life in C57 mouse at 20 mg/kg, po; type: ADME, organism-based; details: in vivo
READOUT_KIND: half-life (h)

Cc1cc(C(F)(F)F)ccc1-c1cc2cn([C@@H](CC(C)C)c3ccc(C(=O)NCCC(=O)O)cc3)nc2cc1C : 5
Cc1cc2c(cnn2[C@@H](CC(C)C)c2ccc(C(=O)NCCC(=O)O)cc2)cc1-c1ccc(C(F)(F)F)cc1Cl : 9.1
Cc1cc(C(F)(F)F)ccc1-c1cc2cnn([C@@H](CC(C)C)c3ccc(C(=O)NCCC(=O)O)cc3)c2cc1C : 6.5
Cc1c(-c2ccc(C(F)(F)F)cc2Cl)ccc2nn([C@@H](CC(C)C)c3ccc(C(=O)NCCC(=O)O)cc3)cc12 : 3.1

---

assay: Stability in human liver microsomes assessed as parent compound remaining at 1 uM incubated for 10 mins; type: ADME, Microsome; conditions: read-out: Stability
Each record here notes measured remaining at 10 min, 1 µM.
READOUT_KIND: remaining at 10 min, 1 µM (%)

CC(C)C[C@@H](c1ccc(C(=O)NCCC(=O)O)cc1)n1ncc2cc(-c3ccc(C(F)(F)F)cc3Cl)ccc21 : 59
Cc1cc2c(cnn2[C@@H](CC(C)C)c2ccc(C(=O)NCCC(=O)O)cc2)cc1-c1ccc(C(F)(F)F)cc1Cl : 62
COc1c(-c2ccc(C(F)(F)F)cc2Cl)ccc2nn([C@H](CC(C)C)c3ccc(C(=O)NCCC(=O)O)cc3)cc12 : 116
Cc1cc(C(F)(F)F)ccc1-c1cc2cnn([C@@H](CC(C)C)c3ccc(C(=O)NCCC(=O)O)cc3)c2cc1C : 81
Cc1cc(C(F)(F)F)ccc1-c1ccc2nn([C@@H](CC(C)C)c3ccc(C(=O)NCCC(=O)O)cc3)cc2c1C : 110
Cc1cc(C(F)(F)F)ccc1-c1cc2cn([C@@H](CC(C)C)c3ccc(C(=O)NCCC(=O)O)cc3)nc2cc1C : 57
COc1c(-c2ccc(C(F)(F)F)cc2Cl)ccc2nn([C@@H](CC(C)C)c3ccc(C(=O)NCCC(=O)O)cc3)cc12 : 89

---

Each record here notes measured remaining at 10 min, 1 µM.
experiment: Stability in rat liver microsomes assessed as parent compound remaining at 1 uM incubated for 10 mins; type: ADME, Microsome; details: read-out: Stability
READOUT_KIND: remaining at 10 min, 1 µM (%)

COc1c(-c2ccc(C(F)(F)F)cc2Cl)ccc2nn([C@@H](CC(C)C)c3ccc(C(=O)NCCC(=O)O)cc3)cc12 : 84
Cc1cc(C(F)(F)F)ccc1-c1cc2cnn([C@@H](CC(C)C)c3ccc(C(=O)NCCC(=O)O)cc3)c2cc1C : 116
Cc1cc(C(F)(F)F)ccc1-c1cc2cn([C@@H](CC(C)C)c3ccc(C(=O)NCCC(=O)O)cc3)nc2cc1C : 113
Cc1cc2c(cnn2[C@@H](CC(C)C)c2ccc(C(=O)NCCC(=O)O)cc2)cc1-c1ccc(C(F)(F)F)cc1Cl : 67
Cc1cc(C(F)(F)F)ccc1-c1ccc2nn([C@@H](CC(C)C)c3ccc(C(=O)NCCC(=O)O)cc3)cc2c1C : 107
Cc1c(-c2ccc(C(F)(F)F)cc2Cl)ccc2c1cnn2[C@@H](CC(C)C)c1ccc(C(=O)NCCC(=O)O)cc1 : 87
Cc1c(-c2ccc(C(F)(F)F)cc2Cl)ccc2nn([C@@H](CC(C)C)c3ccc(C(=O)NCCC(=O)O)cc3)cc12 : 107

---

Each record here notes measured AUC(0-t).
assay: AUClast in C57 mouse at 5 mg/kg, iv or 20 mg/kg, po; type: ADME, organism-based; details: in vivo
READOUT_KIND: AUC(0-t) (µM·h)

Cc1c(-c2ccc(C(F)(F)F)cc2Cl)ccc2nn([C@@H](CC(C)C)c3ccc(C(=O)NCCC(=O)O)cc3)cc12 : 44.9
Cc1cc(C(F)(F)F)ccc1-c1cc2cn([C@@H](CC(C)C)c3ccc(C(=O)NCCC(=O)O)cc3)nc2cc1C : 90.1
Cc1cc2c(cnn2[C@@H](CC(C)C)c2ccc(C(=O)NCCC(=O)O)cc2)cc1-c1ccc(C(F)(F)F)cc1Cl : 254
Cc1cc(C(F)(F)F)ccc1-c1cc2cnn([C@@H](CC(C)C)c3ccc(C(=O)NCCC(=O)O)cc3)c2cc1C : 242

---

test: Clearance in C57 mouse at 5 mg/kg, iv or 20 mg/kg, po; assay type: ADME, organism-based; conditions: in vivo
Each record here notes measured clearance.
READOUT_KIND: clearance (mL/min/kg)

Cc1cc(C(F)(F)F)ccc1-c1cc2cnn([C@@H](CC(C)C)c3ccc(C(=O)NCCC(=O)O)cc3)c2cc1C : 1.61
Cc1c(-c2ccc(C(F)(F)F)cc2Cl)ccc2nn([C@@H](CC(C)C)c3ccc(C(=O)NCCC(=O)O)cc3)cc12 : 10.2
Cc1cc(C(F)(F)F)ccc1-c1cc2cn([C@@H](CC(C)C)c3ccc(C(=O)NCCC(=O)O)cc3)nc2cc1C : 4.78
Cc1cc2c(cnn2[C@@H](CC(C)C)c2ccc(C(=O)NCCC(=O)O)cc2)cc1-c1ccc(C(F)(F)F)cc1Cl : 2.47

---

assay: Cmax in Sprague-Dawley rat at 2 mg/kg, iv or 10 mg/kg, po; format: ADME, organism-based; details: in vivo
Each record here notes measured Cmax.
READOUT_KIND: Cmax (nM)

Cc1cc(C(F)(F)F)ccc1-c1cc2cn([C@@H](CC(C)C)c3ccc(C(=O)NCCC(=O)O)cc3)nc2cc1C : 1100
Cc1cc2c(cnn2[C@@H](CC(C)C)c2ccc(C(=O)NCCC(=O)O)cc2)cc1-c1ccc(C(F)(F)F)cc1Cl : 500
Cc1cc(C(F)(F)F)ccc1-c1cc2cnn([C@@H](CC(C)C)c3ccc(C(=O)NCCC(=O)O)cc3)c2cc1C : 800
Cc1c(-c2ccc(C(F)(F)F)cc2Cl)ccc2nn([C@@H](CC(C)C)c3ccc(C(=O)NCCC(=O)O)cc3)cc12 : 200

---

Each record here notes measured IC50.
target: Cytochrome P450 3A4 (Homo sapiens); assay: Inhibition of CYP3A4 (unknown origin) using midazolam as substrate; type: ADME
Sequence (P08684 whole entry): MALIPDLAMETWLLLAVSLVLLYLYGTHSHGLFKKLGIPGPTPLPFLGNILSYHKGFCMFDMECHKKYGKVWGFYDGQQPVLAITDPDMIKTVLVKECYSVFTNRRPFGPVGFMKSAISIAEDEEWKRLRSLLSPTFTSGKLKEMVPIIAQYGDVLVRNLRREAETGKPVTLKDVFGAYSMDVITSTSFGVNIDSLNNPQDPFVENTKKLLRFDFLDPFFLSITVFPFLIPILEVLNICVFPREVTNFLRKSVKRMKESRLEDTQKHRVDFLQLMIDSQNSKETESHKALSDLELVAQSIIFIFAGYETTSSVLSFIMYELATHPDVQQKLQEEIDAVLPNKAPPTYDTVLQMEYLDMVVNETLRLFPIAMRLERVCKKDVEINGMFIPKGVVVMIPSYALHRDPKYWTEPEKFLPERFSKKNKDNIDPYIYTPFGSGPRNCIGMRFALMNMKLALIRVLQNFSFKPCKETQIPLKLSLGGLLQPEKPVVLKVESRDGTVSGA
READOUT_KIND: IC50

Cc1cc(C(F)(F)F)ccc1-c1cc2cnn([C@@H](CC(C)C)c3ccc(C(=O)NCCC(=O)O)cc3)c2cc1C : > 10 µM
Cc1c(-c2ccc(C(F)(F)F)cc2Cl)ccc2nn([C@@H](CC(C)C)c3ccc(C(=O)NCCC(=O)O)cc3)cc12 : > 10 µM
Cc1cc(C(F)(F)F)ccc1-c1cc2cn([C@@H](CC(C)C)c3ccc(C(=O)NCCC(=O)O)cc3)nc2cc1C : > 10 µM
Cc1cc2c(cnn2[C@@H](CC(C)C)c2ccc(C(=O)NCCC(=O)O)cc2)cc1-c1ccc(C(F)(F)F)cc1Cl : > 10 µM

---

test: Clearance in Sprague-Dawley rat at 2 mg/kg, iv or 10 mg/kg, po; type: ADME, organism-based; conditions: in vivo
READOUT_KIND: clearance (mL/min/kg)

Cc1cc(C(F)(F)F)ccc1-c1cc2cnn([C@@H](CC(C)C)c3ccc(C(=O)NCCC(=O)O)cc3)c2cc1C : 26.8
Cc1cc(C(F)(F)F)ccc1-c1cc2cn([C@@H](CC(C)C)c3ccc(C(=O)NCCC(=O)O)cc3)nc2cc1C : 12.7
Cc1cc2c(cnn2[C@@H](CC(C)C)c2ccc(C(=O)NCCC(=O)O)cc2)cc1-c1ccc(C(F)(F)F)cc1Cl : 18.7
Cc1c(-c2ccc(C(F)(F)F)cc2Cl)ccc2nn([C@@H](CC(C)C)c3ccc(C(=O)NCCC(=O)O)cc3)cc12 : 26.5
